# Test target: human glucagon receptor (human, UniProt P47871 26-477)
# Assay name: cell-based or functional assay
Starred links: 1 amine or outer side, 2 acyl side, 3 side chain; linkers in the order of their positions; H or OH if unused. Non-standard residues stand in square brackets, D forms with d. No end group written: not given here. *: point of attachment. NMe2F‑APPA = N-methyl-2-amino-5-(2-fluorophenyl)pentanoic acid, CN([C@@H](CCCc1ccccc1F)C(=O)[*:2])[*:1]; AMCB = 2-amino-5-(4-chloro-2-methylphenyl)pentanoic acid, Cc1cc(Cl)ccc1CCC[C@H](N[*:1])C(=O)[*:2]; Bip(2'-Et-4'-OMe) = CCc1cc(OC)ccc1-c1ccc(C[C@H](N)C(=O)O)cc1; 2F‑APPA = 2-amino-5-(2-fluorophenyl)pentanoic acid; αMePhe(2-F) = C[C@](N)(Cc1ccccc1F)C(=O)O; NMeBip(OMe) = N-methylated Bip(OMe); hhPhe = N[C@@H](CCCc1ccccc1)C(=O)O; NMeD = CN[C@@H](CC(=O)O)C(=O)O; aThr = C[C@H](O)[C@H](N)C(=O)O; αMeP = C[C@@]1(C(=O)O)CCCN1; CNB = not defined here; Aib = CC(C)(N)C(=O)O; Moc = COC(=O)*
# inhibition of cAMP production, 10 nM per entry
Assay metric: inhibition of cAMP production, 10 nM (pmol/ml/µg prt)

Binder	Assay metric	Reading
H[Aib]QGT[αMePhe(2-F)]TSD[Bip(2'-Et-4'-OMe)][AMCB] [Seq. ID. No. 40: H-Aib-QGT-(α-Me-2F-Phe)-TSD-Bip(OMe)-(AMCB)]	inhibition of cAMP production, 10 nM	16
Moc-H[Aib]QG[aThr][αMePhe(2-F)][aThr]SD[Bip(2'-Et-4'-OMe)][2F‑APPA] (also: reduced (CH2) bond between 10 and 11) [Seq. ID. No. 188: CH3OCO-H-Aib-QG-T(allo)-(α-Me-2F-Phe)-T(allo)-SD-Bip(OMe)-(CH2)-(2F-APPA)]	inhibition of cAMP production, 10 nM	3
H[Aib][CNB]G[aThr][αMePhe(2-F)][aThr]S[NMeD][NMeBip(OMe)][NMe2F‑APPA] (reading uncertain)	inhibition of cAMP production, 10 nM	2
H[Aib][CNB]G[aThr][αMePhe(2-F)]TSD[Bip(2'-Et-4'-OMe)][hhPhe] (reading uncertain) [Seq. ID. No. 110: H-Aib-(CNB)-G-T(allo)-(α-Me-2F-Phe)-TSD-Bip(OMe)-(APPA)]	inhibition of cAMP production, 10 nM	16
H[αMeP]QGTFTSD[Bip(2'-Et-4'-OMe)][hhPhe] [Seq. ID. No. 9: H-(α-Me-Pro)-QGTFTSD-Bip(OMe)-(APPA)]	inhibition of cAMP production, 10 nM	3
